Record form. Attribute: GI50. Fill in for each entry.
- Test system: MDA-MB-435
- assay: NCI tumour cell line growth inhibition, 48 h
Active and inactive are the calls of the source. Cut-off read from the data, not from the text of the source: active = GI50 up to about 1.1 µM and inactive = higher.

Inquiry: Fill in reported GI50 for this entry: "S=C1CCSc2c(ccc3ccccc23)N1"
Reply text: > 100 µM (inactive)

Inquiry: Indicate its recorded GI50; the compound in question is "O=C1c2scc(-c3ccc(Cl)cc3)c2-n2cccc21"
Reply text: 8.04 µM (inactive)

Inquiry: For COC(=O)c1ccccc1C1CN=NC12Cc1cc(C)cc(C)c1C2=O (stereo not given) , write its GI50.
Reply text: 36.4 µM (inactive)

Inquiry: Tell me measured GI50 for "COc1cc(Cl)c(CC(=O)c2c[nH]c3ccccc23)cc1OC" please.
Reply text: > 100 µM (inactive)

Inquiry: # return recorded GI50 for input COC(=O)C1=C(O)C(C(=O)OC)[C@]2(O)[C@H](C(=O)OC)[C@H]1C[C@@H](c1ccc(OC)c(OC)c1)[C@H]2C(=O)OC (stereo not given in full)
Reply text: 11.3 µM (inactive)

---

- System: OVCAR-5
- assay: NCI tumour cell line growth inhibition, 48 h
Activity calls are given as the source filed them. Rule as the data show it: active = GI50 up to about 1.1 µM and inactive = higher.
Select the correct class. Options are active, inactive and nothing else.

Inquiry: In this assay, the call recorded for "CC(=O)N(C(C)=O)n1c(Cc2ccc(Cl)cc2)nn(C(C)=O)c1=O" was what?
Reply text: inactive

Inquiry: Outcome logged for COc1ccc2[nH]cc(CCNC(=O)[C@](O)(Cc3cn(C)c4ccccc34)[C@@]3(O)OCC(O)C3O)c2c1 (stereo not given in full) in this assay:
Reply text: inactive

Inquiry: In this assay, the call recorded for "COc1ccc(OCC(=N/NC(=O)c2ccncc2)/N=C/c2cccnc2)cc1" was what?
Reply text: inactive

Inquiry: Returns: the outcome recorded for "O=[N+]([O-])c1cccc2nc3ccccc3c(NCCCCCNc3c4ccccc4nc4cccc([N+](=O)[O-])c34)c12" in this assay.
Reply text: active

Inquiry: Which result was noted for this compound in the test: "Cn1c2ccccc2c2cc(N3CCCC3)c3c(c21)C(=O)N(c1ccccc1)C3=O"
Reply text: inactive

Inquiry: Kindly provide the recorded test outcome for the following compound: "CN(C)Cc1cc(C(F)(F)F)ccc1C(O)(c1ccccc1)c1ccccc1"
Reply text: inactive

Inquiry: So what was the verdict on "O=C(c1ccc(Cl)cc1)N(C(=S)N1CCN(c2ccccc2)CC1)C1CCCCC1" in this test?
Reply text: inactive

Inquiry: Fill in: this test's call for "O=[N+]([O-])c1cc2oc(CSc3ccccc3)nc2cc1Cl" is ___
Reply text: inactive

Inquiry: Recorded call for "COc1cccc2c1C(=O)C=CC2=O" ?
Reply text: inactive

Inquiry: Returns: the outcome recorded for "BrCc1ccc2ccc3ccc(CBr)nc3c2n1" in this assay.
Reply text: inactive

---

- System: NCI-H460
- assay: NCI tumour cell line growth inhibition, 48 h
Activity calls are given as the source filed them. Cut-off read from the data, not from the text of the source: active = GI50 up to about 1.1 µM and inactive = higher.
property-measured: GI50

Inquiry: Find the measured GI50 of "O=C(c1ccco1)N1CCCN(C(=O)c2ccco2)C1=S" and report it.
Reply text: > 100 µM (inactive)

Inquiry: Hello, please tell me recorded GI50 for this one: "CC1=CC=C2c3ccccc3C=CN2C(=O)C1"
Reply text: 53.2 µM (inactive)

Inquiry: Answer with the recorded GI50 for the compound listed here: CCOC(=O)C(NC(=O)c1ccccc1)(N1CCN(c2cc3c(cc2F)c(=O)c(C(=O)O)cn3C2CC2)CC1)C(F)(F)F (stereo unspecified)
Reply text: 21 µM (inactive)

Inquiry: Determine its reported GI50: CCOC(=O)NC/C=C/COC1CCCCO1 (stereo unspecified)
Reply text: > 100 µM (inactive)

Inquiry: Retrieve GI50 measured for "O=[As](O)(O)c1ccc(/N=N/c2ccc(O)cc2)cc1" and print it.
Reply text: > 100 µM (inactive)

Inquiry: Look up and report measured GI50 for this entry: COc1cc2c(cc1O)-c1c(OC)c(O)cc3c1C(C2)N(C)CC3 (stereo unspecified)
Reply text: > 100 µM (inactive)

Inquiry: Supply measured GI50 of "O=[N+]([O-])c1cc2oc(CSc3ccccc3)nc2cc1Cl" in your reply.
Reply text: 26.7 µM (inactive)

Inquiry: For the compound "Cc1cn([C@@H]2O[C@H](CO)[C@@H](O)[C@@H]2O)c(=O)[nH]c1=O" , give its reported GI50.
Reply text: > 1000 µM (inactive)

Inquiry: Return the recorded GI50 value; entry: COC1=CC(=O)C[C@@H](C)[C@]12Oc1c(Cl)c(OC)cc(OC)c1C2=O [GRISEOFULVIN]
Reply text: 28 µM (inactive)

Inquiry: Give me measured GI50, please, for this compound: "CC[N+](C)(CC)CCN1C(=O)c2ccccc2S1(=O)=O"
Reply text: > 100 µM (inactive)

Inquiry: Supply measured GI50 of "CC(C)NC(=O)OCc1c(COC(=O)NC(C)C)c(-c2ccc[n+](COC(=O)C3CCCCC3)c2)n2c1CCC2" in your reply.
Reply text: 27.9 µM (inactive)

Inquiry: Tell me its GI50 given "CCOc1ccc2c(C)cc(=O)oc2c1" as the entry.
Reply text: > 100 µM (inactive)

Inquiry: Dear colleague, please send me the reported GI50 for "c1ccc2c(c1)Nc1c3ccccc3nc3cccc-2c13" when you can.
Reply text: 0.378 µM (active)

Inquiry: Name the recorded GI50 of the compound listed here: "O=C(N/C(=C\c1ccc(Cl)cc1)c1nc2ccccc2[nH]1)c1ccccc1"
Reply text: 22.1 µM (inactive)

Inquiry: Determine from records and report GI50 for "O=C(/C=C1\NC(=O)c2ccccc2N1)c1ccncc1"
Reply text: > 100 µM (inactive)

Inquiry: Give me measured GI50, please, for this compound: "CC(=O)c1csc2c1C(=O)c1scc(C(C)=O)c1C2=O"
Reply text: 1.03 µM (active)

Inquiry: Return GI50 for the following compound: "CCC(=O)NC(Nc1cccc(F)c1)(C(F)(F)F)C(F)(F)F"
Reply text: > 100 µM (inactive)

Inquiry: Find the measured GI50 of "N#Cc1ccccc1NC(=O)/C(=N\Nc1ccc([N+](=O)[O-])cc1)C1C(=O)NC(=O)NC1=O" and report it.
Reply text: > 100 µM (inactive)

Inquiry: Supply measured GI50 of "CN(CCN1C(=O)c2cc([N+](=O)[O-])cc3cc([N+](=O)[O-])cc(c23)C1=O)CCN1C(=O)c2cc([N+](=O)[O-])cc3cc([N+](=O)[O-])cc(c23)C1=O" in your reply.
Reply text: 0.387 µM (active)

Inquiry: Given "C[C@H]1S[C@@H](c2ccc(Cl)cc2Cl)N(NC(=O)c2ccncc2)C1=O" , respond with its GI50.
Reply text: 58.2 µM (inactive)

Inquiry: Complete the entry with GI50 for "CC(C)N1CC2CC(CN(C(=O)c3ccc(Cl)cc3)C2)C1"
Reply text: > 100 µM (inactive)

Inquiry: Please give the documented GI50 of "Cc1cccc(/C=N/NC(=S)N2CCCCCC2)n1"
Reply text: 0.0977 µM (active)

Inquiry: Supply measured GI50 of O=C(Nc1c(Cl)cc([N+](=O)[O-])cc1Cl)C(=O)C(C(=O)c1ccncc1)C1OC(=O)c2ccccc21 (stereo unspecified) in your reply.
Reply text: > 100 µM (inactive)

Inquiry: State its GI50: COC(=O)C1(C#N)C(C)(C)N=C(c2ccccc2)C12CCCCC2 (stereo unspecified)
Reply text: > 100 µM (inactive)

Inquiry: Using known records, supply GI50 for OC(CC(O)(C(F)(F)F)C(F)(F)F)c1ccc(C(O)CC(O)(C(F)(F)F)C(F)(F)F)cc1 (stereo unspecified)
Reply text: 14.7 µM (inactive)

Inquiry: State its GI50 for this compound: CC1(C(=O)Nc2ccc3cc4ccccc4cc3c2)CC2(C)CC(C)(C1)C(O)NC2=O (stereo unspecified)
Reply text: 56 µM (inactive)

Inquiry: Provide GI50 value for the following compound: "COC(=O)[C@@H](Cc1ccccc1)NNC(=O)OC(C)(C)C"
Reply text: > 100 µM (inactive)

Inquiry: In one line, give reported GI50 of the entry "Cc1c(C(=O)c2ccccc2)[n+]([O-])c2cc(Cl)c(Cl)cc2[n+]1[O-]" .
Reply text: 15.9 µM (inactive)

Inquiry: # return recorded GI50 for input C=CC(C)(C)C1(CC(OC)OC)C(=O)N(C)c2ccccc21 (stereo unspecified)
Reply text: > 25 µM (inactive)

Inquiry: Please look at this compound and report its GI50: "O=C(/C=C/c1ccc(Cl)c(Cl)c1)c1ccc2ccccc2c1"
Reply text: 37.7 µM (inactive)

Inquiry: // fetch GI50 given entry "O=c1c2cc(Cl)ccc2sc2cccc(Cl)c12"
Reply text: > 100 µM (inactive)

Inquiry: For the compound "O=C(c1ccc(Cl)cc1)N(C(=S)N1CCN(c2ccccc2)CC1)C1CCCCC1" , report GI50.
Reply text: > 100 µM (inactive)

Inquiry: Look up and report measured GI50 for this entry: "COc1ccc(-c2cc(=O)c3c(O)c(OC)c(O)cc3o2)cc1O"
Reply text: 3.3 µM (inactive)

Inquiry: Entry COc1cc2cc(C(=O)N3CC(CCl)c4ccc(NO)cc43)[nH]c2c(OC)c1OC (stereo unspecified) needs its GI50 filled in; supply it.
Reply text: 0.0446 µM (active)

Inquiry: Supply measured GI50 of O=C=NCCCCCCN1C(=O)N2C(c3ccccc3)N(CCCCCCN=C=O)C(=O)N2C1c1ccccc1 (stereo unspecified) in your reply.
Reply text: > 100 µM (inactive)

Inquiry: Indicate its recorded GI50; the compound in question is "CCON=C1C(C)(C)C(C)(C)C(C)(C)C1(C)C"
Reply text: > 100 µM (inactive)

Inquiry: Look up and state reported GI50 for "O=C(OCCOC(=O)c1ccc2c(c1)C1(SCCS1)c1ccccc1-2)c1ccc2c(c1)C1(SCCS1)c1ccccc1-2"
Reply text: > 100 µM (inactive)

Inquiry: Indicate the recorded GI50 value for this compound: "NNC(=O)CC(=O)Nc1ccccc1Cl"
Reply text: > 100 µM (inactive)

Inquiry: Identify the reported GI50 for the following entry. CCOC(=O)CCC(NC(=O)c1ccc(OCc2ccc3nc(OC)c(OC)nc3c2)cc1)C(=O)OCC (stereo unspecified)
Reply text: 22.6 µM (inactive)

Inquiry: Specify measured GI50 for COc1ccc(-c2cc(=O)c3c(OC)c(OC)c(OC)c(OC)c3o2)cc1OC [NOBILETIN] .
Reply text: 52.8 µM (inactive)

Inquiry: Using the record for "Cc1c(C(=O)O)sc2nc[nH]c(=O)c12" , state its measured GI50.
Reply text: > 100 µM (inactive)
